# TARGET_OR_TEST_SYSTEM: T1, Human CXCR2 (human, UniProt P25025 1-360)
# T1 sequence: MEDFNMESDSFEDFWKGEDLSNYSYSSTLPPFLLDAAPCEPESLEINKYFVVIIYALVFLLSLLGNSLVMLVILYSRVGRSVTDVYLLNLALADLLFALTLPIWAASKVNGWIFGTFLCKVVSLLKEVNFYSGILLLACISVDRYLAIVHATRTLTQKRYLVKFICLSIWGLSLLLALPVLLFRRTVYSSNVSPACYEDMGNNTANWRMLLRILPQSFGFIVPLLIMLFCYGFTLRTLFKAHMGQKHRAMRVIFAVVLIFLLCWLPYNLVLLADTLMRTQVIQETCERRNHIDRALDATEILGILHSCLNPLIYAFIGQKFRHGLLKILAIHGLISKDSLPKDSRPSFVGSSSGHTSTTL
# TEST_DESCRIPTION: cell-based or functional assay
OBSERVATION_TYPE: [35S]GTPγS % inhibition of max, GRO-α (%)
Reply numerically in %, unit not repeated.

Q) For CXCR20035 (other, not shown: small tags and cut ends) EVQLVESGGGLVQAGGSLTLSCAVSGSTFRINTMGWYRRAPGKQRELVAARDRGGYINYVDSVKGRFTVSRDNAKPTMYLQMNSLKPEDTAVYYCHAGTQDRTGRNFDRWGQGTQVTVSSGGGGSGGGGSGGGGSGGGGSGGGGSGGGGSGGGGSEVQLVESGGGLVQPGGSLRLSCVASGRIFSSNAMGWFRQAPGKEREFVAAITWRSGGSAYYADSAKGRFTISRDNAKNTVYLQMNSLKPEDTAVYYCAAGGSSWLSFPPDYWGQGTQVTVSS , what is its reported [35S]GTPγS % inhibition of max, GRO-α?
A) 100
